Data credit: ChEMBL document CHEMBL5584267

molecular target: UniProtKB O60609
Sequence (O60609 whole entry): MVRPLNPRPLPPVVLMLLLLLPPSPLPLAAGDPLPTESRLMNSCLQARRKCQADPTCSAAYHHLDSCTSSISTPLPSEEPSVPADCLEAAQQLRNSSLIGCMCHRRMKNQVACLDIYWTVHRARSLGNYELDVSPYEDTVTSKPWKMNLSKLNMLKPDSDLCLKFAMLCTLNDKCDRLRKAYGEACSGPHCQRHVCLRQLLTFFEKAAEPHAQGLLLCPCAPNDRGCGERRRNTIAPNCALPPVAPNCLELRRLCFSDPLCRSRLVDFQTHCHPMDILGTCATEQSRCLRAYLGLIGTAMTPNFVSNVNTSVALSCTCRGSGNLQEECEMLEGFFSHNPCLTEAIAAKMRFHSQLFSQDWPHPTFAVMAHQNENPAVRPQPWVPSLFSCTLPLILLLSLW
endpoint name: pIC50
When answering, recall that pIC50 equals minus log10 of the concentration in mol/L, and write that number alone.

Solved cases below.
Which pIC50 value belongs to CNC(=O)[C@H](NC(=O)Cc1cccc(O[C@H]2CCc3cc(-c4cnc(Nc5ccccc5)nc4)ccc32)c1)C1CCCCC1 ?
6.15

Which pIC50 is listed for CNC(=O)[C@H](Cc1c[nH]cn1)NC(=O)Cc1cccc(O[C@H]2CCc3cc(-c4cnc(Nc5ccccc5)nc4)ccc32)c1 ?
5.27

Next up:
# query: pIC50 of entry O[C@H]1CCc2cc(-c3cnc(Nc4ccccc4)nc3)ccc21
5.06
